Catalogue of compounds with associated pIC50
target: human CB1 receptor (Homo sapiens, UniProt P21554)
Sequence (P21554 whole entry): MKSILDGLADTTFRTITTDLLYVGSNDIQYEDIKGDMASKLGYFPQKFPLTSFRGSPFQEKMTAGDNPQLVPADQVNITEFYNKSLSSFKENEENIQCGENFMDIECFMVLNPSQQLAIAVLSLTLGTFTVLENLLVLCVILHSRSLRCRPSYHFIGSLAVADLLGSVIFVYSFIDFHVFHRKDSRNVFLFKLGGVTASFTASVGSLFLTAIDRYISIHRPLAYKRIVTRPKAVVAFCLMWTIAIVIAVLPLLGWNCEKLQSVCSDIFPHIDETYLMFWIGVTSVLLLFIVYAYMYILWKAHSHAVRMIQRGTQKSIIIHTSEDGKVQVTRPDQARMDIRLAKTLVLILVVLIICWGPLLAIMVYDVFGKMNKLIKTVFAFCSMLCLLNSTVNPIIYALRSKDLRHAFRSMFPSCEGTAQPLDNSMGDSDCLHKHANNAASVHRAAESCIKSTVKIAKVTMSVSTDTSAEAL
procedure_details: CB1 receptor antagonism, agonist-induced cAMP modulation (HTRF) in transfected CHO cells
experimental_setup: read-out: Antag IC50
pIC50: −log10 of the molar value.

Field: example entries. Status: answers known.
| chemical_string | pIC50 |
| --- | --- |
| COc1ncc(F)cc1Cn1nc2c(-c3cc(C)nc(C)c3)c(-c3ccccc3)nc(N)n2c1=O | 5.13 |
| Cc1cc(-c2c(-c3ccccc3)nc(N)n3c(=O)n(C[C@@H]4COCCN4Cc4ccccc4)nc23)cc(C)n1 | 5.57 |
| Nc1nc(Cn2nc3c(-c4cc(Cl)nc(CO)c4)c(-c4ccccc4)nc(N)n3c2=O)ccc1F | < 4.00 |
| Cc1cc(-c2c(-c3ccccc3)nc(N)n3c(=O)n(CCC(F)(F)F)nc23)cc(CO)n1 | < 4.00 |
| CCN(C)c1nc(N)n2c(=O)n(CCC(F)(F)F)nc2c1-c1cc(C)nc(C)c1 | < 4.00 |

Test item Cc1cc(-c2c(-c3ccccc3)nc(N)n3c(=O)n(Cc4ccc(F)cn4)nc23)cc(CO)n1 ; human CB1 receptor (Homo sapiens, UniProt P21554); reported pIC50 was 4.20

Test item Nc1nc(-c2ccccc2)c(-c2cc(CO)nc(C(F)(F)F)c2)c2nn(CCC(F)(F)F)c(=O)n12 ; human CB1 receptor (Homo sapiens, UniProt P21554); reported pIC50 was < 4.00

Test item CCN(C)CCn1nc2c(-c3cc(C)nc(C)c3)c(-c3ccccc3)nc(N)n2c1=O ; human CB1 receptor (Homo sapiens, UniProt P21554); reported pIC50 was < 4.00

Test item Cc1cc(-c2c(-c3ccccc3)nc(N)n3c(=O)n(CC(C)C)nc23)cc(C)[n+]1[O-] ; human CB1 receptor (Homo sapiens, UniProt P21554); reported pIC50 was < 4.00

Test item Cc1cc(-c2c(-c3ccccc3)nc(N)n3c(=O)n(Cc4ccc(F)c(N)n4)nc23)cc(CO)n1 ; human CB1 receptor (Homo sapiens, UniProt P21554); reported pIC50 was < 4.00

Test item Cc1cc(-c2c(-c3ccccc3)nc(N)n3c(=O)n(CCC(F)(F)F)nc23)cc(C)[n+]1[O-] ; human CB1 receptor (Homo sapiens, UniProt P21554); reported pIC50 was < 4.00

Test item COc1ncccc1Cn1nc2c(-c3cc(C)nc(CO)c3)c(-c3ccccc3)nc(N)n2c1=O ; human CB1 receptor (Homo sapiens, UniProt P21554); reported pIC50 was < 4.00

----------
target: human adenosine A1 receptor (Homo sapiens, UniProt P30542)
Construct: expressed in transfected cells; host or cells: HEK293 cells infected with BacMam (the same paragraph also labels the preparation CHO-hA1)
procedure_details: Inhibition binding assay, human adenosine A1 receptor membranes, [3H]DPCPX
experimental_setup: 1 nM [3H]DPCPX, 25° C., 1 h; IC50 converted to Ki with Cheng-Prusoff; read-out: A1 pKi (converted)
readout: Ki

| compound | Ki |
| --- | --- |
| Cc1cc(-c2c(Cl)nc(N)n3c(=O)n(CCC(F)(F)F)nc23)cc(C)n1 [Example 3-5] | > 3.16 µM |
| C/C=C(/C)c1nc(N)n2c(=O)n(CCC(F)(F)F)nc2c1-c1cc(C)nc(C)c1 [Example 3-9] | > 3.16 µM |
| Cc1cc(-c2c(N3CCCCC3)nc(N)n3c(=O)n(CCC(F)(F)F)nc23)cc(C)n1 [Example 3-2] | > 3.16 µM |

Shifting focus to the compound that follows.
Input Cc1cc(N2CCC(NCCn3nc4c(-c5cc(C)nc(C)c5)c(-c5ccccc5)nc(N)n4c3=O)CC2)[nH]n1 [Example 1-95] . Output Ki: > 2 µM

----------
target: human adenosine A1 receptor (Homo sapiens, UniProt P30542)
Construct: expressed in transfected cells; host or cells: HEK293 cells infected with BacMam (the same paragraph also labels the preparation CHO-hA1)
Sequence (P30542 1-326): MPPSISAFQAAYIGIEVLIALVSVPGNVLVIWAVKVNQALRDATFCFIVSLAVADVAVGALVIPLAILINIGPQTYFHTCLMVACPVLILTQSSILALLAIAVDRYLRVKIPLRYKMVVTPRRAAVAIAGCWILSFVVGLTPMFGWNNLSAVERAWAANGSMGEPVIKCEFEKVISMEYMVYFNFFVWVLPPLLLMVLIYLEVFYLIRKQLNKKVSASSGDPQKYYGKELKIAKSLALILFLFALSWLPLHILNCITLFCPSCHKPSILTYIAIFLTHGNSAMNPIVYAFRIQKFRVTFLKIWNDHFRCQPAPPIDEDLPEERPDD
procedure_details: Inhibition binding assay, human adenosine A1 receptor membranes, [3H]DPCPX
experimental_setup: 1 nM [3H]DPCPX, 25° C., 1 h; IC50 converted to Ki with Cheng-Prusoff; read-out: A1 pKi (converted)
readout: Ki (nM)

Field: example entries. Status: answers known.
| compound | value_unit | Ki |
| --- | --- | --- |
| Cc1cc(-c2c(-c3ccccc3)nc(N)n3c(=O)n(Cc4ncc(F)cn4)nc23)cc(C)n1 [Example 1-35] | nM | 1000 |
| Cc1cc(-c2c(-c3ccccc3)nc(N)n3c(=O)n(C(C)c4ccc(F)cc4F)nc23)cc(C)n1 (stereo not drawn) [Example 1-11] | nM | 398 |
| COc1cc(-c2c(-c3ccccc3)nc(N)n3c(=O)n(Cc4ccc(F)cn4)nc23)cc(CO)n1 [Example 1-73] | nM | 398 |
| Cc1cc(-c2c(-c3ccccc3)nc(N)n3c(=O)n(CC4CCCCO4)nc23)cc(CO)n1 (single isomer, unassigned) [Example 2-91-iso-1] | nM | 631 |
| Cc1cc(-c2c(-c3ccccc3)nc(N)n3c(=O)n(C4CCCN(C(=O)OC(C)(C)C)C4)nc23)cc(C)n1 (stereo not drawn) [Example 2-54] | nM | 398 |

1. Cc1cc(-c2c(-c3ccc(F)cc3)nc(N)n3c(=O)n(Cc4ccc(Cl)cn4)nc23)cc(CO)n1 [Example 1-62]
2. COc1ccc(-c2nc(N)n3c(=O)n(CCC(F)(F)F)nc3c2-c2cc(C)nc(C)c2)cc1 [Example 2-35]
3. Cc1cc(-c2c(-c3ccccc3)nc(N)n3c(=O)n(Cc4cccnn4)nc23)cc(CO)n1 [Example 1-56]
4. Cc1cc(-c2c(-c3ccc(F)cc3)nc(N)n3c(=O)n(Cc4cccnn4)nc23)cc(C)n1 [Example 1-41]
Req: Arrange items by their Ki values in increasing order. Please write the labels in the order that was asked for.
Resp: 2, 3, 4, 1
(2: 79.4 nM, 3: 200 nM, 4: 398 nM, 1: 1000 nM)

a. Nc1nc(-c2ccccc2)c(-c2cc(Cl)nc(CO)c2)c2nn(Cc3ccc(F)cn3)c(=O)n12 [Example 1-69]
b. Cc1cc(-c2c(-c3ccccc3)nc(N)n3c(=O)n(C[C@@H]4COCCN4)nc23)cc(C)n1 [Example 2-79]
Req: Just tell me: smaller Ki value, a or b ? # respond with the chosen item's label
Resp: a
(a: 251 nM, b: 794 nM)

----------
target: human adenosine A2A receptor (Homo sapiens)
Construct: expressed in transfected cells; host or cells: HEK293 cells infected with BacMam
Sequence (P29274 whole entry): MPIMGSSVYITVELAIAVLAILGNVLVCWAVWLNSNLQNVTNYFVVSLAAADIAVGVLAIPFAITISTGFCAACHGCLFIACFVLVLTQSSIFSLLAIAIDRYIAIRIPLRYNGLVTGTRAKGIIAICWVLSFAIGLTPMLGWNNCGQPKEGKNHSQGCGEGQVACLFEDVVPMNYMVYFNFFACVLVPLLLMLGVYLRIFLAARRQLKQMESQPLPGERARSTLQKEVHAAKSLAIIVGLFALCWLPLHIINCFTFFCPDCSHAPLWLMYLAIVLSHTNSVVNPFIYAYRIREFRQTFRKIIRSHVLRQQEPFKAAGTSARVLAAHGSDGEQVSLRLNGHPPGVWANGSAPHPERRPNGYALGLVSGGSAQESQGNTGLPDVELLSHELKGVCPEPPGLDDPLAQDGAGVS
procedure_details: Inhibition binding assay, human adenosine A2A receptor membranes, [3H]ZM241385
experimental_setup: 1 nM [3H]ZM241385, HEK293-hA2A membranes, 25° C., 1 h; IC50 converted to Ki with Cheng-Prusoff; read-out: A2A pKi (converted)
readout: Ki (nM)

Field: example entries. Status: answers known.
| compound | target | experimental_result |
| --- | --- | --- |
| Cc1cc(-c2c(-c3ccccc3)nc(N)n3c(=O)n(CCN4CCCC(C)C4)nc23)cc(C)n1 (stereo not drawn) | human adenosine A2A receptor (Homo sapiens) | 20 |
| Cc1cc(-c2c(-c3ccccc3)nc(N)n3c(=O)n(C[C@H]4COCCN4)nc23)cc(C)n1 | human adenosine A2A receptor (Homo sapiens) | 15.8 |

I. Cc1cc(-c2c(-c3ccccc3)nc(N)n3c(=O)n(C[C@H]4CN(C(=O)OC(C)(C)C)CCO4)nc23)cc(C)n1
II. Cc1cc(-c2c(-c3nc(C)cs3)nc(N)n3c(=O)n(CCC(F)(F)F)nc23)cc(C)n1
III. Cc1cc(-c2c(-c3ccccc3)nc(N)n3c(=O)n(CCC(F)(F)F)nc23)cc(C)n1
IV. Cc1cc(-c2c(-c3ccccc3)nc(N)n3c(=O)n(CC4CS(=O)(=O)C4)nc23)cc(C)n1
Req: Arrange items by their Ki values in increasing order. Please write the labels in the order that was asked for.
Resp: III, I, II, IV
(III: 2 nM, I: 12.6 nM, II: 20 nM, IV: 50.1 nM)
